target: human TRPA1 (Homo sapiens (Human), UniProt O75762); experiment: Measurement of TRPA1 antagonist activity (1): intracellular calcium increase; format: cell-based; details: 293T cells transfected with human TRPA1 expression plasmid; allylisothiocyanate 20 μM stimulation; intracellular calcium fluorescence; read-out: hTRPA1 IC50
Sequence (O75762 whole entry): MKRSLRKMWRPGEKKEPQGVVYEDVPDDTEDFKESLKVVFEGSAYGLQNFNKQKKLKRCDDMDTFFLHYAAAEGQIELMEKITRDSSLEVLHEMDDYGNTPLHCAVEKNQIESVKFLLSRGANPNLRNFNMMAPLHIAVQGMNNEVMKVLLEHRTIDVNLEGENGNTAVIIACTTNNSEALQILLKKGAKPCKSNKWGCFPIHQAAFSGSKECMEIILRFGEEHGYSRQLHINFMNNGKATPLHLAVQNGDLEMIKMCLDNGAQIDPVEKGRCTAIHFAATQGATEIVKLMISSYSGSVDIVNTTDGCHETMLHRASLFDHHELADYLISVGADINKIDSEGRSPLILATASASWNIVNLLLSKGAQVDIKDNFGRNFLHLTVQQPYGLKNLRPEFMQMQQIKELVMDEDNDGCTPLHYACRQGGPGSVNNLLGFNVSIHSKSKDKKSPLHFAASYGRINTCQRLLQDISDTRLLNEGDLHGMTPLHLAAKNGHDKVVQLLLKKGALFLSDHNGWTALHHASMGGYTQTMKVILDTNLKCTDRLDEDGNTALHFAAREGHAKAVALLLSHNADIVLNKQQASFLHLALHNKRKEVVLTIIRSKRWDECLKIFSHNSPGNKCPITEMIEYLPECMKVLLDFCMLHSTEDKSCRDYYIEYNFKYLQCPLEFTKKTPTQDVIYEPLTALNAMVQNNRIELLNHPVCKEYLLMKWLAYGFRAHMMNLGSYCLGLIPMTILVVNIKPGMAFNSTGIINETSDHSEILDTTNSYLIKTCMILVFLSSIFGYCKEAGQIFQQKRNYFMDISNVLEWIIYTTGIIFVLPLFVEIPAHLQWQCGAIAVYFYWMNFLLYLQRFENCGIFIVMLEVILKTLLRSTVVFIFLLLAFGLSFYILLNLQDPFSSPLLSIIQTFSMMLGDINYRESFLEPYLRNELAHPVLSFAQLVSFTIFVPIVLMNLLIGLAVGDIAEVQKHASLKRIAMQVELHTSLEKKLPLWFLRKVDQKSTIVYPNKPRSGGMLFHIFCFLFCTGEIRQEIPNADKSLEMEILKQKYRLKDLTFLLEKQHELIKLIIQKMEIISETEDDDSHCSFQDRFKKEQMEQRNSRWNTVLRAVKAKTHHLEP
recorded_metric: IC50 (nM)

Example results:
// returns reported IC50 for input `C[C@H](NS(=O)(=O)c1cc2cc(F)ccc2o1)C(=O)NCc1cc(OC(F)(F)F)ccc1F`
160

// returns reported IC50 for input `O=C(NCc1ccnc(-c2ccc(C(F)(F)F)cc2)c1)[C@@H]1CCCN1S(=O)(=O)c1cc2cccc(F)c2o1`
390

// returns reported IC50 for input `O=C(NCc1ccc(O)c(-c2ccc(C(F)(F)F)cn2)c1)[C@@H]1CCCN1S(=O)(=O)c1cc2cnccc2o1`
1.6

// returns reported IC50 for input `O=C(NCc1ccc(OC(F)(F)F)c(F)c1)[C@@H]1CCCN1S(=O)(=O)c1cc2cc(F)ccc2o1`
12

A. CN(C)c1cc(COc2cccc(CNC(=O)[C@@H]3CCCN3S(=O)(=O)c3cc4cc(F)ccc4o3)c2)ccn1
B. O=C(NCc1cccc(Oc2ccc(C(F)(F)F)nc2)c1)[C@@H]1CCCN1S(=O)(=O)c1cc2ccccc2o1
# compare IC50 for A vs B ; return the one with the smaller value State the label of the item chosen.
B
(B: 9 nM, A: 15 nM)
